The values you see were collected from the supplement of paper PMC8728848.

Target: GalNAc(b1-3)GalNAc
Assay: glycan array binding signal (z-score within array); higher = stronger binding
Details: glycan notation: IUPAC condensed, linker removed
Shown is part of a subset that was picked to be rich in the strongest signals.
What glycan array binding signal (z-score) was measured for each of the following?

Any idea what its glycan array binding signal (z-score) is? The binder is CML1 (Coprinopsis cinerea) (protein) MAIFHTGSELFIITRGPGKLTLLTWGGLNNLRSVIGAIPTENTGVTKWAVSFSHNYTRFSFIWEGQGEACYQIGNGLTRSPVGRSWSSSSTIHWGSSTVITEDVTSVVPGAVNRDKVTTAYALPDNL
-0.349

Would you kindly repeat that for NPA (Narcissus pseudonarcissus), C0HM45 (protein) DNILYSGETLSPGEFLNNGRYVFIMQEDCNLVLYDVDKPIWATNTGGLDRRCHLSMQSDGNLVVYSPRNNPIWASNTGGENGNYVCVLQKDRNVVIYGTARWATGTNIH ?
-0.153

Would you kindly repeat that for Morniga (Morus nigra) (protein) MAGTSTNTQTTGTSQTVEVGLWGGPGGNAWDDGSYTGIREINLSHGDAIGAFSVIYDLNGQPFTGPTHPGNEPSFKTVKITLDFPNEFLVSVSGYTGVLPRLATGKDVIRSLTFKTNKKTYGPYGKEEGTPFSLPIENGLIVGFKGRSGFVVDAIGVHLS ?
-0.327

Would you kindly repeat that for MPA (Maclura pomifera) (protein) GVTFDDGAYTGIREINFEYNSETAIGGLRVTYDLNGMPFVAEDHKSFITGFKPVKISLEFPSEYIVEVSGYVGKVEGYTVIRSLTFKTNKQTYGPYGVTNGTPFSLPIENGLIVGFKGSIGYWLDYFSIYLSLNGPNGKSQSIIVGPWGDRVTN ?
6.31
